ASSAYED SYSTEM: pre-pro-insulin glargine
MEASUREMENT LABEL: Purity Insulin Glargine (area %)
Give bare numbers, in area %.

Consider the reported Purity Insulin Glargine for these proteins:
# PROTEIN, Purity Insulin Glargine / area %
records = [
    ("trypsin variant SEQ ID NO: 93 (protein) IVGGYTCAANSIPYQVSLNSGSHRCGGSLINSQWVVSAAHCYKSRIQVRLGEHNIDVLEGNEQFINAAKIITHPNFNPNTLDNDIMLIKLSSPATLNSNVATVSLPTSCAAAGTECLISGWGNTCSSGSSMPSLLQCLKAPVLSDSSCKSSYPGQITGNMICVGFLEGGADACQGDSGGPVVCNGQLQGIVSSGYGCAQKNKPGVYTKVCNYVNWIQQTIAAN", 71.3),
    ("trypsin variant SEQ ID NO: 104 (protein) IVGGYTCAANSIPYQVSLNSGSHRCGGSLINSQWVVSAAHCYKSRIQVRLGEHNIHVLEGNEQFINAAKIITHPNFNPNTLDNDIMLIKLSSPATLNSNVATVSLPTSCAAAGTECLISGWGNTCSSGSSMPSLLQCLKAPVLSDSSCKSSYPGQITGNMICVGFLEGGADACQGDSGGPVVCNGQLQGIVSSGYGCAQKNKPGVYTKVCNYVNWIQQTIAAN", 89.3),
]

Turning to the following protein.
q: Fill in the blank: the reported Purity Insulin Glargine of porcine trypsin variant S172A (SEQ ID NO: 2) (protein) IVGGYTCAANSIPYQVSLNSGSHFCGGSLINSQWVVSAAHCYKSRIQVRLGEHNIDVLEGNEQFINAAKIITHPNFNGNTLDNDIMLIKLSSPATLNSRVATVSLPRSCAAAGTECLISGWGNTKSSGSSYPSLLQCLKAPVLSDSSCKSSYPGQITGNMICVGFLEGGKDACQGDSGGPVVCNGQLQGIVSWGYGCAQKNKPGVYTKVCNYVNWIQQTIAAN is ____.
a: 53.6

These data points were gathered from patent US20230303994.
